Where do the numbers come from? From patent US7476673B2.

- target.or.test.system: RARγ (Homo sapiens)
- Construct: % Efficiency γ; other: percentage of maximum compared to standard TTNPB
- assay: chimeric receptor transactivation assay, RARγ
- Assay type: cell-based
- test.parameters: percentage of maximum compared to standard TTNPB
assay.readout: % Efficiency γ (%)
The reply should be a number in %, with the unit left off.

>>> observed_measurement("CC1(C)CCSc2ccc(C(C=Cc3ccc(C(=O)O)cc3)=NO)cc21 [drawing 20]")
100
>>> observed_measurement("CCCCCCCN1C(=O)CC(C)(C)c2cc(C(/C=C/c3ccc(C(=O)O)cc3)=N\\O)ccc21")
35
>>> observed_measurement("COc1cc2c(cc1C(/C=C/c1ccc(C(=O)O)cc1)=N\\O)C(C)(C)CCC2(C)C")
107
>>> observed_measurement("CC1(C)CCC(C)(C)c2nc(C(C=Cc3ccc(C(=O)O)cc3)=NO)cnc21 [drawing 34]")
123
>>> observed_measurement("CCCCCCCN1C(=O)CC(C)(C)c2cc(C(C=Cc3ccc(C(=O)O)cc3)=NO)ccc21")
11

Give the reported % Efficiency γ for this compound. CC1(C)CCCc2ccc(C(C=Cc3ccc(C(=O)O)cc3)=NO)cc21 [drawing 12]
97

For the compound CC1(C)CCCc2ccc(C(/C=C/c3ccc(C(=O)O)cc3F)=N/O)cc21 , report % Efficiency γ.
97

----------
- target.or.test.system: RARα (Homo sapiens)
- Sequence (P10276 183-417 limits assumed): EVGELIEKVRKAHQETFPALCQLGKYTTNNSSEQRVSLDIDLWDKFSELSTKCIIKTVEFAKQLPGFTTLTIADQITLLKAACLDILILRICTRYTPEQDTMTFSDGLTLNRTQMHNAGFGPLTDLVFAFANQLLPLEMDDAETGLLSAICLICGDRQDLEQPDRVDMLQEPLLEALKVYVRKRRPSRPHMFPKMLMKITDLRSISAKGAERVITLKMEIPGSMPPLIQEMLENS
- assay: chimeric receptor transactivation assay, RARα
- Assay type: cell-based
- test.parameters: chimeric receptor transactivation; read-out: RAR EC50 α
Listing: EC50 of selected compounds
Field format: number, assumed nM, no unit text.

>>> observed_measurement("CC1(C)CCSc2ccc(C(C=Cc3ccc(C(=O)O)cc3)=NO)cc21 [drawing 18]")
242
>>> observed_measurement("CC1(C)CC(C)(C)c2cc(C(C=Cc3ccc(C(=O)O)cc3)=NO)ccc21 [drawing 30]")
148

Kindly consider the entry below.
Read the entry CC1(C)CCC(C)(C)c2nc(C(C=Cc3ccc(C(=O)O)cc3)=NO)cnc21 [drawing 34] and write its reported EC50.
4000

----------
Sequence of the target: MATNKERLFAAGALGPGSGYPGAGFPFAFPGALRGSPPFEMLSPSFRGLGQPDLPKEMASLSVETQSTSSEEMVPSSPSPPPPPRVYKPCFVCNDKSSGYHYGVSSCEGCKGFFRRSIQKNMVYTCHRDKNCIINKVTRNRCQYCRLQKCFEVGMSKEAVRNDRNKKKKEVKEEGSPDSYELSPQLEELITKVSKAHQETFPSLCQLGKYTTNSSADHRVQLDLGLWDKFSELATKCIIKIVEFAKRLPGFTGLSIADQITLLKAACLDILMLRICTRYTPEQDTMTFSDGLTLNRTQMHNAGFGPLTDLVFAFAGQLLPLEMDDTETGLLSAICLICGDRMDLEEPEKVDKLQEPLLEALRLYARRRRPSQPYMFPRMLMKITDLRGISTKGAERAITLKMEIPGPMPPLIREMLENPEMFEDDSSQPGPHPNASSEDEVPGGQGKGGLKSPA
assay.readout: pKi
By convention, pKi is the negative base-10 log of a molar concentration.

Example entries and their recorded answers appear below.
>>> observed_measurement("Cc1cc2c(cc1C(C=Cc1ccc(C(=O)O)cc1)=NO)C(C)(C)CCC2(C)C [drawing 37]")
5.73
>>> observed_measurement("CC1(C)CCCc2cc(C(C=Cc3ccc(C(=O)O)cc3)=NO)ccc21 [drawing 17]")
4.57
>>> observed_measurement("CC1=CCC(C)(C)c2cc(C(/C=C/c3ccc(C(=O)O)cc3)=N\\O)ccc21")
7.44
>>> observed_measurement("CC1(C)CCCc2cc(C(C=Cc3ccc(C(=O)O)cc3)=NO)ccc21 [drawing 16]")
5.22
>>> observed_measurement("CC1(C)CCC(C)(C)c2cc(C(C=Cc3ccc(C(=O)O)cc3)=NO)ccc21 [drawing 9]")
7.85
>>> observed_measurement("CC1(C)CCC(C)(C)c2nc(C(C=Cc3ccc(C(=O)O)cc3)=NO)cnc21 [drawing 35]")
6.34
>>> observed_measurement("CC1(C)CCCc2ccc(C(C=Cc3ccc(C(=O)O)cc3)=NO)cc21 [drawing 14]")
7.80

Tell me its pKi given CC1(C)CCC(C)(C)c2cc(C(C=Cc3ccc(C(=O)O)cc3F)=NO)ccc21 [drawing 11] as the entry.
7.47
